- EXPERIMENTAL_TARGET: T1, wild-type human integrin αvβ3 (octyl β-D-glucopyranoside preparation) (human, UniProt P06756 31-1048; P05106 27-788)
- T1 construct: From Immunological Sciences
- T1 sequence (P06756 31-1048, chain 1 of 2): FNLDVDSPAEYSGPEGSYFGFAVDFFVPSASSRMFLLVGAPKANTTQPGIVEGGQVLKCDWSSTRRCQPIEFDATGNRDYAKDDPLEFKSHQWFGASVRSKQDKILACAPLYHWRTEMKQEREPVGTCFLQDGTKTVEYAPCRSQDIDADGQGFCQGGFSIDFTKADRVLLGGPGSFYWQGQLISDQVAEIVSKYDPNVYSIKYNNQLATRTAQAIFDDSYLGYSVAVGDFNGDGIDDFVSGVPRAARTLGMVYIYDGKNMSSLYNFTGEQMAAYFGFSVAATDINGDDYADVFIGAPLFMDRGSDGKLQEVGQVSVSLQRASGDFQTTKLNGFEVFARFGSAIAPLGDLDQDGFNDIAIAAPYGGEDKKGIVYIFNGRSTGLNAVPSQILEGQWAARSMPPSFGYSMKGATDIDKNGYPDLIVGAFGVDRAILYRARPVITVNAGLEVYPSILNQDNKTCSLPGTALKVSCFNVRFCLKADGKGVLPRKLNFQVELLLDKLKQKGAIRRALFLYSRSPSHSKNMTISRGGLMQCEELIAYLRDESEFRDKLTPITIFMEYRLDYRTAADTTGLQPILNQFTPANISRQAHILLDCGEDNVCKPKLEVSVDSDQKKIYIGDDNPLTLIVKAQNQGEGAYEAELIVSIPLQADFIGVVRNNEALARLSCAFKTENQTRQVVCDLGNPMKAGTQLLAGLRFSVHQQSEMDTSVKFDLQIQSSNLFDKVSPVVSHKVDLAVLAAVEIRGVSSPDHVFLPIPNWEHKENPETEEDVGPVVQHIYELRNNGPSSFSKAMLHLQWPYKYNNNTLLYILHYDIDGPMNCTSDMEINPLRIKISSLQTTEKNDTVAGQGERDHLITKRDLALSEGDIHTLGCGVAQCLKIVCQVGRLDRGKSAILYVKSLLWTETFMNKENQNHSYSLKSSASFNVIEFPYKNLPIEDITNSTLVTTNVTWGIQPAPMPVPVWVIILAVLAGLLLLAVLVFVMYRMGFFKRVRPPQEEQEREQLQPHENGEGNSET
- T1 sequence (P05106 27-788, chain 2 of 2): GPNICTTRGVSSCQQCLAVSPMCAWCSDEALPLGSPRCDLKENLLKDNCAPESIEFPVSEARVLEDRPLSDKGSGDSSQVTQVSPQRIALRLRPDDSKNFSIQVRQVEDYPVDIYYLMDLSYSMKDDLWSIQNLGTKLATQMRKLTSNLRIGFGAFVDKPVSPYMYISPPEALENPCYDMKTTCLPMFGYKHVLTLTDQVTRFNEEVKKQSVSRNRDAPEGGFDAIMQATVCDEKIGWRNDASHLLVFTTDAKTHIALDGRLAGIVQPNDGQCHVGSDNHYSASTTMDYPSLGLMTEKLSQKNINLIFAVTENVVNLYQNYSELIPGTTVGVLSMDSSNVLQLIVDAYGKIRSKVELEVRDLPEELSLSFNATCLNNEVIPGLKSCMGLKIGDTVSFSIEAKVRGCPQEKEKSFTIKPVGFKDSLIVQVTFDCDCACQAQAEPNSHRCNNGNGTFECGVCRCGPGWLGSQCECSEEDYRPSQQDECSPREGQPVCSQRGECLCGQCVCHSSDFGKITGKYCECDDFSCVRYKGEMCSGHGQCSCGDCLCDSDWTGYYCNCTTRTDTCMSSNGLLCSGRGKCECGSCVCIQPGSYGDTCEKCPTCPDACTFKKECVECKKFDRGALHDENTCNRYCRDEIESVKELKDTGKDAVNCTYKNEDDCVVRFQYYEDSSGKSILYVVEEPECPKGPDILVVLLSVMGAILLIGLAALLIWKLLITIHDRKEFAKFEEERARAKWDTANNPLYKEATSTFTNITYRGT
- METHOD_DESCRIPTION: competitive binding assay on αvβ3-coated plates, isoDGR/STV-HRP probe
pKi: −log10 of the molar value. Where no end group is shown, it is not given here.
MEASUREMENT_NAME: pKi

{"columns": ["BINDER", "OBS_VALUE"],
 "data": [
  ["FETLRGDERILSILRHQNLLKELQD (Synthetic peptide bought from Biomatik; no terminal modification is stated for it; also called compound 1) [peptide 1 (CgA-derived peptide, residues 39-63), synthetic]", 5.66],
  ["FETLRGDERILSILR-NH2 (Made by Fmoc-SPPS on a Rink-amide resin; also called compound 3) [peptide 3]", 5.90]
]}
